- system_name: Coronary A2-Adenosine Receptor (Canis lupus familiaris)
- Construct: The assay of coronary vasoactivity in the anesthetized, open-chest dog; from tissue; host or cells: coronary vessels in situ, anesthetized open-chest dog
- Sequence (P11617 whole entry): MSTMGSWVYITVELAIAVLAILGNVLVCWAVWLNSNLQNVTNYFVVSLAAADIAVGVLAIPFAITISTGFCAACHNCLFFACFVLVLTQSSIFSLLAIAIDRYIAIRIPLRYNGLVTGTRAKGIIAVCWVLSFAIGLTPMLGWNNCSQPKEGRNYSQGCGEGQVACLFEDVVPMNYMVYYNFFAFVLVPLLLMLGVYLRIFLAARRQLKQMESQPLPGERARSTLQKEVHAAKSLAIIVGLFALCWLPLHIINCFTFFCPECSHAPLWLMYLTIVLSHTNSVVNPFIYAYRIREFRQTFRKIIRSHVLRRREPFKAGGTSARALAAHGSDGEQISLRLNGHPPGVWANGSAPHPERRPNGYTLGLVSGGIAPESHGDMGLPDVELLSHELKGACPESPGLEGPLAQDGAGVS
- assay: Coronary vasoactivity in the anesthetized, open-chest dog (intracoronary infusion; MPR from EC50)
- Format: in vivo
- experimental_context: ratio of MPR (MeAdo) at dog coronary A2 receptor to MPR at rat brain A1 receptor
Collected A2/A1 potency ratio (MPR(A2)/MPR(A1)) values appear next to each entry.

# compound, system_name, A2/A1 potency ratio (MPR(A2)/MPR(A1))
data = [
    ("O=C(CCCC[C@@H]1SC[C@@H]2NC(=O)N[C@@H]21)NCCCCCC(=O)NCCNC(=O)Cc1ccc(NC(=O)Cc2ccc(Nc3ncnc4c3ncn4[C@@H]3O[C@H](CO)[C@@H](O)[C@H]3O)cc2)cc1", "Coronary A2-Adenosine Receptor (Canis lupus familiaris)", 61),
    ("OC[C@H]1O[C@@H](n2cnc3c(Nc4ccccc4)ncnc32)[C@H](O)[C@@H]1O [Compound 6, N^6 -phenyladenosine, reference compound]", "Coronary A2-Adenosine Receptor (Canis lupus familiaris)", 1.6),
    ("O=C(CCc1ccc(O)cc1)NCCNC(=O)Cc1ccc(NC(=O)Cc2ccc(Nc3ncnc4c3ncn4[C@@H]3O[C@H](CO)[C@@H](O)[C@H]3O)cc2)cc1", "Coronary A2-Adenosine Receptor (Canis lupus familiaris)", 4.2),
    ("Cc1ccc(Nc2ncnc3c2ncn3[C@@H]2O[C@H](CO)[C@@H](O)[C@H]2O)cc1 [Compound 7, N^6 -p-tolyladenosine, reference compound]", "Coronary A2-Adenosine Receptor (Canis lupus familiaris)", 1.1),
]
